molecular target: recombinant DYRK1A kinase (Homo sapiens (Human)); assay: DYRK1A kinase assay (Ser/Thr 18 peptide Z-lyte FRET assay); details: recombinant DYRK1A 0.25 µg/mL, ATP 15 µM, Ser/Thr peptide 18 4 µM, one hour at room temperature; table head prints EC50, method says IC50
REPORTED METRIC: pEC50
// returns pEC50 (minus log10 of molar concentration), number only

Measured pEC50 for this entry CCO[C@H]1CC[C@@H](Nc2ncc3c(-c4cnc5nccn5c4)ccn3n2)CC1 [Compound 263] on recombinant DYRK1A kinase (Homo sapiens (Human)): 8.22

Measured pEC50 for this entry Cc1nc2ccc(-c3ccn4nc(N[C@H]5C[C@@](C)(O)C5)ncc34)nc2n1CC(F)F [Compound 1819] on recombinant DYRK1A kinase (Homo sapiens (Human)): 8.52

Measured pEC50 for this entry Cc1nc2ccc(-c3ccn4nc(NCC(C)(C)F)ncc34)nc2n1CC(F)F [Compound 1068] on recombinant DYRK1A kinase (Homo sapiens (Human)): 8.40

Measured pEC50 for this entry Cc1nc2ccc(-c3ccn4nc(NC5CCC6(CC5)COC6)ncc34)nc2n1CC(F)F [Compound 1961] on recombinant DYRK1A kinase (Homo sapiens (Human)): 8.52

Measured pEC50 for this entry CO[C@H]1CC[C@H](Nc2ncc3c(-c4cnc5nc(C)n(CC(F)F)c5c4)ccn3n2)CC1 [Compound 686] on recombinant DYRK1A kinase (Homo sapiens (Human)): 8.30

Measured pEC50 for this entry CCOC(=O)[C@H]1CC[C@@H](Nc2ncc3c(-c4ccc5nc(C)n(CC(F)F)c5n4)ccn3n2)CC1 [Compound 1843] on recombinant DYRK1A kinase (Homo sapiens (Human)): 7.48

Measured pEC50 for this entry Cc1nc2ccc(-c3ccn4nc(N[C@H]5CC[C@@H](CN6CCOCC6)CC5)ncc34)nc2n1CC(F)F [Compound 1842] on recombinant DYRK1A kinase (Homo sapiens (Human)): 8.30

Measured pEC50 for this entry Cc1nc2ccc(-c3ccn4nc(N[C@H]5CC[C@@H](C(=O)N6CCC6)CC5)ncc34)nc2n1CC(F)F [Compound 1896] on recombinant DYRK1A kinase (Homo sapiens (Human)): 8.52

Measured pEC50 for this entry Cc1nc2ncc(-c3ccn4nc(N[C@@H]5CCN(C)C[C@H]5F)ncc34)cc2n1CC(F)F [Compound 1885] on recombinant DYRK1A kinase (Homo sapiens (Human)): 8.22

Measured pEC50 for this entry CCO[C@H]1C[C@@H](Nc2ncc3c(-c4cnc5nccn5c4)ccn3n2)C1 [Compound 242] on recombinant DYRK1A kinase (Homo sapiens (Human)): 8.30

Measured pEC50 for this entry CC(=O)N1C[C@H](F)[C@H](Nc2ncc3c(-c4ccc5nc(C)n(CC(F)F)c5n4)ccn3n2)C1 [Compound 1941] on recombinant DYRK1A kinase (Homo sapiens (Human)): 8.40

Measured pEC50 for this entry Cc1nc2ccc(-c3ccn4nc(N[C@H]5CCN(C)C(=O)C5)ncc34)nc2n1CC(F)F [Compound 1911] on recombinant DYRK1A kinase (Homo sapiens (Human)): 8.40

Measured pEC50 for this entry Cc1nc2ccc(-c3ccn4nc(N[C@H]5CC[C@@](C)(O)CC5)ncc34)nc2n1CC(F)F [Compound 1110] on recombinant DYRK1A kinase (Homo sapiens (Human)): 8.52

Measured pEC50 for this entry FC(F)(F)CNc1ncc2c(-c3cnc4nccn4c3)ccn2n1 [Compound 218] on recombinant DYRK1A kinase (Homo sapiens (Human)): 7.89

Measured pEC50 for this entry CO[C@H]1CC[C@@H](Nc2ncc3c(-c4ccc5nc(C)n(CC(F)F)c5n4)ccn3n2)CC1 [Compound 1111] on recombinant DYRK1A kinase (Homo sapiens (Human)): 8.52

Measured pEC50 for this entry Cc1nc2ccc(-c3ccn4nc(N[C@H]5C[C@@H](N6CCOCC6)C5)ncc34)nc2n1CC(F)F [Compound 1892] on recombinant DYRK1A kinase (Homo sapiens (Human)): 8.70

Measured pEC50 for this entry Cc1nc2ncc(-c3ccn4nc(NCC(C)(C)F)ncc34)cc2n1CC(F)F [Compound 642] on recombinant DYRK1A kinase (Homo sapiens (Human)): 8.40

Measured pEC50 for this entry COCCO[C@H]1CC[C@H](Nc2ncc3c(-c4cnc5ncccc5c4)ccn3n2)CC1 [Compound 1544] on recombinant DYRK1A kinase (Homo sapiens (Human)): 8.30

Measured pEC50 for this entry Cc1nc2ccc(-c3ccn4nc(N[C@H]5CC[C@@](C)(O)CC5)ncc34)nc2n1CC(F)(F)F [Compound 1868] on recombinant DYRK1A kinase (Homo sapiens (Human)): 8.05

Measured pEC50 for this entry CC1(CNc2ncc3c(-c4cnc5nccn5c4)ccn3n2)CC1 [Compound 225] on recombinant DYRK1A kinase (Homo sapiens (Human)): 7.96

Measured pEC50 for this entry CC(=O)N[C@H]1CC[C@H](Nc2ncc3c(-c4ccc5nc(C)n(CC(F)F)c5n4)ccn3n2)CC1 [Compound 1844] on recombinant DYRK1A kinase (Homo sapiens (Human)): 8.52

Measured pEC50 for this entry c1cnc2ccc(-c3ccn4nc(NC5CC6(CNC6)C5)ncc34)cc2c1 [Compound 1747] on recombinant DYRK1A kinase (Homo sapiens (Human)): 8.52

Measured pEC50 for this entry Cc1nc2ncc(-c3ccn4nc(NC5CCN(C6COC6)CC5)ncc34)cc2n1CC(F)F [Compound 1889] on recombinant DYRK1A kinase (Homo sapiens (Human)): 8.15

Measured pEC50 for this entry Cc1nc2ccc(-c3ccn4nc(N[C@@H]5CN(C)C[C@@H]5F)ncc34)nc2n1CC(F)F [Compound 1900] on recombinant DYRK1A kinase (Homo sapiens (Human)): 8.30

Measured pEC50 for this entry Cc1nc2ccc(-c3ccn4nc(NC5CCN(CC(F)F)CC5)ncc34)nc2n1CC(F)F [Compound 1850] on recombinant DYRK1A kinase (Homo sapiens (Human)): 8.10

Measured pEC50 for this entry CC(C)CN1CC2(CC(Nc3ncc4c(-c5cnc6nccn6c5)ccn4n3)C2)C1 [Compound 1756] on recombinant DYRK1A kinase (Homo sapiens (Human)): 7.74

Measured pEC50 for this entry Cc1nc2ccc(-c3ccn4nc(NCC(C)(C)F)ncc34)nc2n1C [Compound 855] on recombinant DYRK1A kinase (Homo sapiens (Human)): 7.37

Measured pEC50 for this entry COCCO[C@H]1CC[C@@H](Nc2ncc3c(-c4ccc5nc(C)n(CC(F)F)c5n4)ccn3n2)CC1 [Compound 1117] on recombinant DYRK1A kinase (Homo sapiens (Human)): 8.40

Measured pEC50 for this entry Cc1nc2ncc(-c3ccn4nc(N[C@H]5C[C@@](C)(O)C5)ncc34)cc2n1CC(F)F [Compound 1813] on recombinant DYRK1A kinase (Homo sapiens (Human)): 8.40

Measured pEC50 for this entry Cc1nc2ccc(-c3ccn4nc(N[C@H]5CCCOC5)ncc34)nc2n1CC(F)F [Compound 1864] on recombinant DYRK1A kinase (Homo sapiens (Human)): 8.52

Measured pEC50 for this entry CC(=O)N1CCC(Nc2ncc3c(-c4ccc5nc(C)n(CC(F)F)c5n4)ccn3n2)CC1 [Compound 1857] on recombinant DYRK1A kinase (Homo sapiens (Human)): 8.52

All values here come from patent US20230312605A1.
